# protocol.summary: logP (HCOOH)
# Format: physicochemical
# measurement.context: Table 2
endpoint: logP (HCOOH)

[[record]]
compound = "CC(C)Oc1ncccc1C(=O)Nc1c(NC2CC2)ncnc1-c1ccc(C#N)cc1"
endpoint = "logP (HCOOH)"
measured_value = 2.27

[[record]]
compound = "CCOc1ncccc1C(=O)Nc1c(NC2CC2)ncnc1-c1ccc(OC(F)(F)F)cc1"
endpoint = "logP (HCOOH)"
measured_value = 2.64

[[record]]
compound = "CCc1ncccc1C(=O)Nc1c(NC(C)C2CC2)ncnc1-c1ccccc1 (stereo not drawn)"
endpoint = "logP (HCOOH)"
measured_value = 1.32

[[record]]
compound = "CCc1ncccc1C(=O)Nc1c(NC2CC2)ncnc1-c1ccc(Cl)cc1F"
endpoint = "logP (HCOOH)"
measured_value = 1.46

[[record]]
compound = "CCc1ncccc1C(=O)Nc1c(NC2CC2)ncnc1-c1ccc(C(F)(F)F)cc1C"
endpoint = "logP (HCOOH)"
measured_value = 1.77

[[record]]
compound = "CCc1ncccc1C(=O)Nc1c(NC2CC2)ncnc1-c1ccc(Oc2ncc(C(F)(F)F)cc2Cl)cc1"
endpoint = "logP (HCOOH)"
measured_value = 1.84

[[record]]
compound = "Cc1ncccc1C(=O)Nc1c(NC2CC2)ncnc1-c1ccc(SC(F)(F)F)cc1"
endpoint = "logP (HCOOH)"
measured_value = 1.81

[[record]]
compound = "O=C(Nc1c(NC2CC2)ncnc1-c1ccc(F)cc1)c1cccnc1C(=O)NC1CC1"
endpoint = "logP (HCOOH)"
measured_value = 1.45

[[record]]
compound = "CCc1ncccc1C(=O)Nc1c(NC(C)C2(Cl)CC2)ncnc1-c1ccc(Cl)cc1Cl (stereo not drawn)"
endpoint = "logP (HCOOH)"
measured_value = 2.67

